Measured pIC50 values are reported for all entries that follow.
test system: SW480 cells (colon carcinoma); assay: MTT cytotoxicity assay, SW480; assay type: cell-based; details: Homo sapiens, SW480, 96 h, read-out: IC50 SW480
pIC50: −log10 of the molar value.
Measurement label: pIC50

• CCn1nc(C(=O)O)c(=O)c2cc3c(cc21)OCO3 [cin-H, cinoxacin] = < 3.49
• CC1COc2c(N3CCN(C)CC3)c(F)cc3c(=O)c(C(=O)O)cn1c23 (stereo not drawn) [oflo-H, ofloxacin, reference compound] = < 3.49
• CCn1cc(C(=O)O)c(=O)c2ccc(C)nc21 [nal-H, nalidixic acid] = < 3.49

----------
test system: A549 cells (nonsmall cell lung carcinoma); test: MTT cytotoxicity assay, A549; assay type: cell-based; settings: Homo sapiens, A549, 96 h, read-out: IC50 A549
pIC50: −log10 of the molar value.
Measurement label: pIC50

• CCn1cc(C(=O)O)c(=O)c2ccc(C)nc21 [nal-H, nalidixic acid] = < 3.49
• CCn1nc(C(=O)O)c(=O)c2cc3c(cc21)OCO3 [cin-H, cinoxacin] = < 3.49
• CC1COc2c(N3CCN(C)CC3)c(F)cc3c(=O)c(C(=O)O)cn1c23 (stereo not drawn) [oflo-H, ofloxacin, reference compound] = < 3.49
